# -TΔS listing for each entry below
Target: S1 domain of SARS-CoV-2 spike protein (Severe acute respiratory syndrome coronavirus 2, UniProt P0DTC2)
Test: biochemical
Format: binding

Worked examples, 3 compounds total:
1. O=C1/C(=c2\c3ccccc3n3c(=O)c4ccccc4nc23)Nc2ccccc21 | 17.35 kcal/mol
2. O=C1C(C2(C3(C4=Nc5ccccc5C4=O)Nc4ccccc4C3=O)Nc3ccccc3C2=O)=Nc2ccccc21 (stereo not shown) | -2.383 kcal/mol
3. O=c1cc(-c2ccc(O)c(-c3c(O)cc(O)c4c(=O)cc(-c5ccc(O)cc5)oc34)c2)oc2cc(O)cc(O)c12 | 12.3 kcal/mol

Field: next compound
Sample CC1=C(O)C(=O)C=C2C1=CC=C1[C@@]2(C)CC[C@@]2(C)[C@@H]3C[C@](C)(C(=O)O)CC[C@]3(C)CC[C@]12C — what was its -TΔS?
-47.59 kcal/mol

---

Target: S1 domain of SARS-CoV-2 spike protein (Severe acute respiratory syndrome coronavirus 2, UniProt P0DTC2)
Assay: biochemical
Type: binding
readout_type: n (reaction stoichiometry)
Give the value as a plain number.

Below: 4 compounds and their reported n (reaction stoichiometry).
1. O=C1C(C2(C3(C4=Nc5ccccc5C4=O)Nc4ccccc4C3=O)Nc3ccccc3C2=O)=Nc2ccccc21 (centres unmarked) [Cephalinone D] | 0.333
2. CC1=C(O)C(=O)C=C2C1=CC=C1[C@@]2(C)CC[C@@]2(C)[C@@H]3C[C@](C)(C(=O)O)CC[C@]3(C)CC[C@]12C [Celastrol] | 1.409
3. C[C@@H]1CC[C@@]2(OC1)O[C@H]1C[C@H]3[C@@H]4CC=C5C[C@@H](O[C@@H]6O[C@H](CO)[C@@H](O[C@@H]7O[C@@H](C)[C@H](O)[C@@H](O)[C@H]7O)[C@H](O)[C@H]6O[C@@H]6O[C@@H](C)[C@H](O)[C@@H](O)[C@H]6O)CC[C@]5(C)[C@H]4CC[C@]3(C)[C@H]1[C@@H]2C [Dioscin] | 5.488
4. O=C1/C(=c2\c3ccccc3n3c(=O)c4ccccc4nc23)Nc2ccccc21 [Candidine] | 0.115

Continue with the compound presented below.
Which n (reaction stoichiometry) is reported for this compound? O=c1cc(-c2ccc(O)c(-c3c(O)cc(O)c4c(=O)cc(-c5ccc(O)cc5)oc34)c2)oc2cc(O)cc(O)c12 [Amentoflavone]
2.731

---

Target: S1 domain of SARS-CoV-2 spike protein (Severe acute respiratory syndrome coronavirus 2, UniProt P0DTC2)
readout_type: pKd
Just so you know, pKd here is -log10 of the concentration in molar units; reply with that number alone.

Example entries begin here.
1. C[C@@H]1CC[C@@]2(OC1)O[C@H]1C[C@H]3[C@@H]4CC=C5C[C@@H](O[C@@H]6O[C@H](CO)[C@@H](O[C@@H]7O[C@@H](C)[C@H](O)[C@@H](O)[C@H]7O)[C@H](O)[C@H]6O[C@@H]6O[C@@H](C)[C@H](O)[C@@H](O)[C@H]6O)CC[C@]5(C)[C@H]4CC[C@]3(C)[C@H]1[C@@H]2C | 6.33
2. O=c1cc(-c2ccc(O)c(-c3c(O)cc(O)c4c(=O)cc(-c5ccc(O)cc5)oc34)c2)oc2cc(O)cc(O)c12 | 5.37

GET /values?readout=pKd&item= CC1=C(O)C(=O)C=C2C1=CC=C1[C@@]2(C)CC[C@@]2(C)[C@@H]3C[C@](C)(C(=O)O)CC[C@]3(C)CC[C@]12C
5.77

How about this molecule: O=C1/C(=c2\c3ccccc3n3c(=O)c4ccccc4nc23)Nc2ccccc21
4.80

---

Target: S1 domain of SARS-CoV-2 spike protein (Severe acute respiratory syndrome coronavirus 2, UniProt P0DTC2)
Test: biochemical
Type: binding
readout_type: ΔS (J/mol·K)
Your answer should be a plain number; it is taken to be in J/mol·K.

Before answering, review these 3 worked examples.
1. O=C1/C(=c2\c3ccccc3n3c(=O)c4ccccc4nc23)Nc2ccccc21 [Candidine] | −243.4
2. O=C1C(C2(C3(C4=Nc5ccccc5C4=O)Nc4ccccc4C3=O)Nc3ccccc3C2=O)=Nc2ccccc21 (stereo not shown) [Cephalinone D] | 33.45
3. CC1=C(O)C(=O)C=C2C1=CC=C1[C@@]2(C)CC[C@@]2(C)[C@@H]3C[C@](C)(C(=O)O)CC[C@]3(C)CC[C@]12C [Celastrol] | 667.9

--- query ---
Give the measured ΔS of C[C@@H]1CC[C@@]2(OC1)O[C@H]1C[C@H]3[C@@H]4CC=C5C[C@@H](O[C@@H]6O[C@H](CO)[C@@H](O[C@@H]7O[C@@H](C)[C@H](O)[C@@H](O)[C@H]7O)[C@H](O)[C@H]6O[C@@H]6O[C@@H](C)[C@H](O)[C@@H](O)[C@H]6O)CC[C@]5(C)[C@H]4CC[C@]3(C)[C@H]1[C@@H]2C [Dioscin] .
110.6
